The reported numbers originate from patent US6673839B1.

- Test system: Cells from Larynx Carcinoma Explant
- assay-summary: In vitro short-term chemosensitivity assay (MTT)
- Assay type: cell-based, human
- experimental-parameters: Table 2 explant; 10x
Where a name gives a salt, the structure may show the parent alone.
endpoint-name: Cell Vitality Percentage After Exposure (%)
Give just the numeric value; % need not be written.

What does the data say about its Cell Vitality Percentage After Exposure? Entry: `CC[C@]1(O)C[C@H]2CN(CCc3c([nH]c4ccccc34)[C@@](C(=O)OC)(c3cc4c(cc3OC)N(C=O)[C@H]3[C@@](O)(C(=O)OC)[C@H](OC(C)=O)[C@]5(CC)C=CCN6CC[C@]43[C@@H]65)C2)C1` 11

What does the data say about its Cell Vitality Percentage After Exposure? Entry: COc1cccc2c1C(=O)c1c(O)c3c(c(O)c1C2=O)C[C@@](O)(C(=O)CO)C[C@@H]3O[C@H]1C[C@H](N)[C@@H](O)[C@H](C)O1 [Epi-Dx, epidoxorubicin] 7

What does the data say about its Cell Vitality Percentage After Exposure? Entry: CC(=O)OC(CC(=O)[O-])C[N+](C)(C)C [L-aC, L-acetylcarnitine hydrochloride] 15

What does the data say about its Cell Vitality Percentage After Exposure? Entry: `O=c1[nH]cc(F)c(=O)[nH]1` 13

What does the data say about its Cell Vitality Percentage After Exposure? Entry: `N.N.O=C([O-])C1(C(=O)[O-])CCC1.[Pt+2]` 34

---

Give measured Cell Vitality Percentage After Exposure for each item. Keep answers brief.
- Tested on: Cells from Larynx Carcinoma Explant
- assay-summary: In vitro short-term chemosensitivity assay (MTT)
- Type: cell-based, human
- experimental-parameters: Table 2 explant; 0.1x
Where a name gives a salt, the structure may show the parent alone.
Give just the numeric value; % need not be written.

What does the data say about its Cell Vitality Percentage After Exposure? Entry: `N.N.O=C([O-])C1(C(=O)[O-])CCC1.[Pt+2]` 78

What does the data say about its Cell Vitality Percentage After Exposure? Entry: CC(=O)OC(CC(=O)[O-])C[N+](C)(C)C [L-aC, L-acetylcarnitine hydrochloride] 62

What does the data say about its Cell Vitality Percentage After Exposure? Entry: COc1cccc2c1C(=O)c1c(O)c3c(c(O)c1C2=O)C[C@@](O)(C(=O)CO)C[C@@H]3O[C@H]1C[C@H](N)[C@@H](O)[C@H](C)O1 [Epi-Dx, epidoxorubicin] 59

What does the data say about its Cell Vitality Percentage After Exposure? Entry: `O=c1[nH]cc(F)c(=O)[nH]1` 53

What does the data say about its Cell Vitality Percentage After Exposure? Entry: `CC[C@]1(O)C[C@H]2CN(CCc3c([nH]c4ccccc34)[C@@](C(=O)OC)(c3cc4c(cc3OC)N(C=O)[C@H]3[C@@](O)(C(=O)OC)[C@H](OC(C)=O)[C@]5(CC)C=CCN6CC[C@]43[C@@H]65)C2)C1` 70

---

- Test system: Cells from Nasopharynx Carcinoma Explant
- assay-summary: In vitro short-term chemosensitivity assay (MTT)
- Type: cell-based, human
- experimental-parameters: Table 1; 1x maximum clinical serum concentration; 24 h
- Protocol: The effects of L-aC on cells from 4 primitive epidermoid carcinomas of the larynx and 1 primitive undifferentiated carcinoma of the nasopharynx were tested. […] The optical density was evaluated by a Uniscan microspectrophotometer with a […] wavelength filter. Cytotoxicity was evaluated as percentage of the optical density of the treated sample compared with the optical density of the control. […]
Counter-ions that a name gives are not always drawn.
endpoint-name: Cell Vitality Percentage After Exposure (%)
Give just the numeric value; % need not be written.

What does the data say about its Cell Vitality Percentage After Exposure? Entry: `N.N.O=C([O-])C1(C(=O)[O-])CCC1.[Pt+2]` 7

What does the data say about its Cell Vitality Percentage After Exposure? Entry: `CC[C@]1(O)C[C@H]2CN(CCc3c([nH]c4ccccc34)[C@@](C(=O)OC)(c3cc4c(cc3OC)N(C=O)[C@H]3[C@@](O)(C(=O)OC)[C@H](OC(C)=O)[C@]5(CC)C=CCN6CC[C@]43[C@@H]65)C2)C1` 4.6

What does the data say about its Cell Vitality Percentage After Exposure? Entry: `O=c1[nH]cc(F)c(=O)[nH]1` 12

What does the data say about its Cell Vitality Percentage After Exposure? Entry: COc1cccc2c1C(=O)c1c(O)c3c(c(O)c1C2=O)C[C@@](O)(C(=O)CO)C[C@@H]3O[C@H]1C[C@H](N)[C@@H](O)[C@H](C)O1 [Epi-Dx, epidoxorubicin] 7.8

What does the data say about its Cell Vitality Percentage After Exposure? Entry: CN(Cc1cnc2nc(N)nc(N)c2n1)c1ccc(C(=O)N[C@@H](CCC(=O)O)C(=O)O)cc1 [MTX, methotrexate] 5

What does the data say about its Cell Vitality Percentage After Exposure? Entry: CC(=O)OC(CC(=O)[O-])C[N+](C)(C)C [L-aC, L-acetylcarnitine hydrochloride] 4.8

---

- System: Cells from Larynx Carcinoma Explant
- assay-summary: In vitro short-term chemosensitivity assay (MTT)
- Format: cell-based, human
- experimental-parameters: Table 5 explant; 10x
Structures can show the parent of a compound that is named as a salt.
Give measured Cell Vitality Percentage After Exposure for each item. Keep answers brief.
Give just the numeric value; % need not be written.

What does the data say about its Cell Vitality Percentage After Exposure? Entry: `O=c1[nH]cc(F)c(=O)[nH]1` 8.2

What does the data say about its Cell Vitality Percentage After Exposure? Entry: `CC[C@]1(O)C[C@H]2CN(CCc3c([nH]c4ccccc34)[C@@](C(=O)OC)(c3cc4c(cc3OC)N(C=O)[C@H]3[C@@](O)(C(=O)OC)[C@H](OC(C)=O)[C@]5(CC)C=CCN6CC[C@]43[C@@H]65)C2)C1` 2

What does the data say about its Cell Vitality Percentage After Exposure? Entry: CC(=O)OC(CC(=O)[O-])C[N+](C)(C)C [L-aC, L-acetylcarnitine hydrochloride] 32

What does the data say about its Cell Vitality Percentage After Exposure? Entry: COc1cccc2c1C(=O)c1c(O)c3c(c(O)c1C2=O)C[C@@](O)(C(=O)CO)C[C@@H]3O[C@H]1C[C@H](N)[C@@H](O)[C@H](C)O1 [Epi-Dx, epidoxorubicin] 18

What does the data say about its Cell Vitality Percentage After Exposure? Entry: `N.N.O=C([O-])C1(C(=O)[O-])CCC1.[Pt+2]` 45

---

- Tested on: Cells from Larynx Carcinoma Explant
- assay-summary: In vitro short-term chemosensitivity assay (MTT)
- Type: cell-based, human
- experimental-parameters: Table 4 explant; 10x
Counter-ions that a name gives are not always drawn.
endpoint-name: Cell Vitality Percentage After Exposure (%)
Give just the numeric value; % need not be written.

Find the measured Cell Vitality Percentage After Exposure: item CN(Cc1cnc2nc(N)nc(N)c2n1)c1ccc(C(=O)N[C@@H](CCC(=O)O)C(=O)O)cc1 [MTX, methotrexate] , target or system Cells from Larynx Carcinoma Explant. 3.1

Find the measured Cell Vitality Percentage After Exposure: item `O=c1[nH]cc(F)c(=O)[nH]1` , target or system Cells from Larynx Carcinoma Explant. 14

Find the measured Cell Vitality Percentage After Exposure: item `CC[C@]1(O)C[C@H]2CN(CCc3c([nH]c4ccccc34)[C@@](C(=O)OC)(c3cc4c(cc3OC)N(C=O)[C@H]3[C@@](O)(C(=O)OC)[C@H](OC(C)=O)[C@]5(CC)C=CCN6CC[C@]43[C@@H]65)C2)C1` , target or system Cells from Larynx Carcinoma Explant. 1.3

Find the measured Cell Vitality Percentage After Exposure: item COc1cccc2c1C(=O)c1c(O)c3c(c(O)c1C2=O)C[C@@](O)(C(=O)CO)C[C@@H]3O[C@H]1C[C@H](N)[C@@H](O)[C@H](C)O1 [Epi-Dx, epidoxorubicin] , target or system Cells from Larynx Carcinoma Explant. 8

Find the measured Cell Vitality Percentage After Exposure: item CC(=O)OC(CC(=O)[O-])C[N+](C)(C)C [L-aC, L-acetylcarnitine hydrochloride] , target or system Cells from Larynx Carcinoma Explant. 1.4
